Catalogue of solubility at 24 h readings, one per entry.
- Test protocol: Assay for Determination of Aqueous Solubility
- Format: physicochemical
- Condition set: McIlvaine buffer pH 6.8 with 2.5% DMSO, aqueous buffer, kinetic from dmso stock, McIlvaine buffer pH 6.8, 2.5% DMSO
Give your result in µg/mL as a bare value.

The examples below pair each entry with its known result.
Molecule: CS(=O)(=O)c1cc(C#N)ccc1[C@@H]1C2=C(CCCC2=O)N(c2cccc(C(F)(F)F)c2)C(=O)N1C(N)=O
Unit label: µg/mL
Quantitative readout: 79
--
Molecule: CC(C)(O)CNC(=O)N1C(=O)N(c2cccc(C(F)(F)F)c2)C2=C(C(=O)CCC2)C1c1ccc(C#N)cc1 (stereo not shown)
Unit label: µg/mL
Quantitative readout: 12
--
Molecule: CN1C(=O)N(c2ccnc(C(F)(F)F)c2)C2=C(C(=O)CCC2)C1c1ccc(C#N)cc1S(C)(=O)=O (stereo not shown)
Unit label: µg/mL
Quantitative readout: 8

// next item, solubility at 24 h requested
So for CS(=O)(=O)c1cc(C#N)ccc1[C@@H]1C2=C(CCCC2=O)N(c2cccc(C(F)(F)F)c2)C(=O)N1S(C)(=O)=O , the logged solubility at 24 h turned out to be 57

* * *

- Test protocol: Assay for Determination of Aqueous Solubility
- Format: physicochemical
- Condition set: McIlvaine buffer pH 6.8, 2.5% DMSO, 24 h
Please assign a class to every record based on measured Aqueous solubility, with ranges group A: < 60 µg/mL; group B: ≥ 60 µg/mL and < 80 µg/mL; group C: ≥ 80 µg/mL

INPUT: Which class is correct for the following molecule? CS(=O)(=O)c1cc(C#N)ccc1[C@@H]1C2=C(CCCC2=O)N(c2cccc(C(F)(F)F)c2)C(=O)N1C(=O)NC1CCOCC1 [Example 75.16]
OUTPUT: group B

INPUT: Which class is correct for the following molecule? CS(=O)(=O)c1cc(C#N)ccc1C1C2=C(CCCC2=O)N(c2cccc(C(F)(F)F)c2)C(=O)N1CCCO (centres unmarked) [Example 58.2]
OUTPUT: group A

INPUT: Which class is correct for the following molecule? CC(C)NC(=O)N1C(=O)N(c2cccc(C(F)(F)F)c2)C2=C(C(=O)CCC2)[C@H]1c1ccc(C#N)cc1S(C)(=O)=O [Example 75.3]
OUTPUT: group A

INPUT: Which class is correct for the following molecule? CNC(=O)N1C(=O)N(c2cccc(C(F)(F)F)c2)C2=C(C(=O)CCC2)[C@H]1c1ccc(C#N)cc1S(C)(=O)=O (single isomer, unassigned) [Example 47A]
OUTPUT: group C

INPUT: Which class is correct for the following molecule? CS(=O)(=O)CCNC(=O)N1C(=O)N(c2cccc(C(F)(F)F)c2)C2=C(C(=O)CCC2)C1c1ccc(C#N)cc1 (centres unmarked) [Example 39.19]
OUTPUT: group A

INPUT: Which class is correct for the following molecule? CS(=O)(=O)c1cc(C#N)ccc1[C@@H]1C2=C(CCCC2=O)N(c2cccc(C(F)(F)F)c2)C(=O)N1C(=O)NCC(F)F [Example 75.7]
OUTPUT: group C

INPUT: Which class is correct for the following molecule? CS(=O)(=O)c1cc(C#N)ccc1[C@H]1NC(=O)N(c2cccc(C(F)F)c2)C2=C1C(=O)CCC2 (single isomer, unassigned) [Example 19A]
OUTPUT: group C

INPUT: Which class is correct for the following molecule? CCNC(=O)N1C(=O)N(c2cccc(C(F)(F)F)c2)C2=C(C(=O)CCC2)C1c1ccc(C#N)cc1S(C)(=O)=O (centres unmarked) [Example 47.1]
OUTPUT: group B

INPUT: Which class is correct for the following molecule? N#Cc1ccc(C2C3=C(CCCC3=O)N(c3cccc(C(F)(F)F)c3)C(=O)N2C(=O)NCCO)cc1 (centres unmarked) [Example 39.3]
OUTPUT: group A

* * *

- Experimental system: Human neutrophil elastase (Homo sapiens (Human), UniProt P08246)
- Sequence (P08246 30-267): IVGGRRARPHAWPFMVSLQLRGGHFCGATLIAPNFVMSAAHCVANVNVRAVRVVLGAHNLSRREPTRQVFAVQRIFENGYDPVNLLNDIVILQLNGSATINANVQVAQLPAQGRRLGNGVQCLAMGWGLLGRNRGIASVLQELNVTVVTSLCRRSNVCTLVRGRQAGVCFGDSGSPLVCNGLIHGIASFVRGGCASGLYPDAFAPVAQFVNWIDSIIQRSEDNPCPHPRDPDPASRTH
- Test protocol: Human Neutrophil Elastase Assay
- Type: biochemical
- Condition set: human neutrophil elastase, substrate MeOSuc-Ala-Ala-Pro-Val-AMC, pH 7.5; read-out: IC50
The threshold is 10 nM. Values of IC50 beneath it are tagged y; values meeting or exceeding it are tagged n.

The examples below pair each entry with its known result.
Compound: COC(=O)CN1C(=O)N(c2cccc(C(F)(F)F)c2)C2=C(C(=O)CCC2)C1c1ccc(C#N)cc1 (racemic) [Example 31]
Qualitative label: n

Compound: CS(=O)(=O)c1cc(C#N)ccc1[C@@H]1NC(=O)N(c2cccc(C(F)F)c2)C2=C1C(=O)CCC2 [Example 19B]
Qualitative label: n

Compound: CS(=O)(=O)c1cc(C#N)ccc1C1NC(=O)N(c2cccc(C(F)F)c2)C2=C1C(=O)CCC2 (racemic) [Example 19]
Qualitative label: n

INPUT: Please check: IC50 for CC(C)(CO)NC(=O)N1C(=O)N(c2cccc(C(F)(F)F)c2)C2=C(C(=O)CCC2)[C@H]1c1ccc(C#N)cc1S(C)(=O)=O [Example 75.13] , strictly under 10 nM or not?
OUTPUT: y

INPUT: Please check: IC50 for CN(C)C(=O)CN1C(=O)N(c2cccc(C(F)(F)F)c2)C2=C(C(=O)CCC2)[C@H]1c1ccc(C#N)cc1 [Example 34A] , strictly under 10 nM or not?
OUTPUT: y

INPUT: Please check: IC50 for CS(=O)(=O)c1cc(C#N)ccc1C1C2=C(CCCC2=O)N(c2cccc(C(F)(F)F)c2)C(=O)N1CC(=O)N1CC2CC2C1 (stereo not shown) [Example 62.4] , strictly under 10 nM or not?
OUTPUT: y

INPUT: Please check: IC50 for CS(=O)(=O)c1cc(C#N)ccc1C1C2=C(CCCC2=O)N(c2cccc(C(F)(F)F)c2)C(=O)N1CCCO (stereo not shown) [Example 58.2] , strictly under 10 nM or not?
OUTPUT: y

* * *

- Test protocol: Assay for Determination of Drug Transport Across Human CACO-2 Cells
- Format: in vitro ADME
- Condition set: human; Caco-2, apical-to-basal, pH 7.2, 37° C.; read-out: PEAB
Readout label: Papp A→B at 10 nM (×10⁻⁶ cm/s)
Give your result in ×10⁻⁶ cm/s as a bare value.

The examples below pair each entry with its known result.
Molecule: CS(=O)(=O)c1cc(C#N)ccc1[C@H]1NC(=O)N(c2cccc(C(F)(F)F)c2)C2=C1C(=O)CCC2 (single isomer, unassigned) [Example 18A]
Unit label: ×10⁻⁶ cm/s
Quantitative readout: 20.9
//
Molecule: CS(=O)(=O)c1cc(C#N)ccc1[C@H]1NC(=O)N(c2cccc(C(F)F)c2)C2=C1C(=O)CCC2 (single isomer, unassigned) [Example 19A]
Unit label: ×10⁻⁶ cm/s
Quantitative readout: 11.4
//
Molecule: CN1C(=O)N(c2cccc(C(F)(F)F)c2)C2=C(C(=O)CCC2)[C@H]1c1ccc(C#N)cc1S(C)(=O)=O
Unit label: ×10⁻⁶ cm/s
Quantitative readout: 60

So for CC(C)(O)CNC(=O)N1C(=O)N(c2cccc(C(F)(F)F)c2)C2=C(C(=O)CCC2)C1c1ccc(C#N)cc1 (stereo not shown) , the logged Papp A→B at 10 nM turned out to be 30.3

So for CCS(=O)(=O)c1cc(C#N)ccc1[C@H]1NC(=O)N(c2cccc(C(F)(F)F)c2)C2=C1C(=O)CCC2 (single isomer, unassigned) [Example 54A] , the logged Papp A→B at 10 nM turned out to be 26

So for CNC(=O)N1C(=O)N(c2cccc(C(F)(F)F)c2)C2=C(C(=O)CCC2)[C@H]1c1ccc(C#N)cc1S(C)(=O)=O (single isomer, unassigned) [Example 47A] , the logged Papp A→B at 10 nM turned out to be 9.86

So for CN1C(=O)N(c2ccnc(C(F)(F)F)c2)C2=C(C(=O)CCC2)C1c1ccc(C#N)cc1S(C)(=O)=O (stereo not shown) , the logged Papp A→B at 10 nM turned out to be 17.1

* * *

- Experimental system: Human neutrophil elastase (Homo sapiens (Human))
- Test protocol: Human Neutrophil Elastase Assay
- Format: biochemical
- Condition set: human neutrophil elastase, substrate MeOSuc-Ala-Ala-Pro-Val-AMC, pH 7.5; read-out: IC50
Readout label: pIC50
Conceptually, pIC50 converts a concentration in mol/L into minus its log10.

Compound: CS(=O)(=O)c1cc(C#N)ccc1[C@H]1NC(=O)N(c2cccc(C(F)F)c2)C2=C1C(=O)CCC2 (single isomer, unassigned) [Example 19A]
Quantitative readout: 8.14
--
Compound: COC(=O)CN1C(=O)N(c2cccc(C(F)(F)F)c2)C2=C(C(=O)CCC2)[C@@H]1c1ccc(C#N)cc1 [Example 31B]
Quantitative readout: 5.15
--
Compound: CS(=O)(=O)c1cc(C#N)ccc1[C@H]1NC(=O)N(c2cccc(C(F)(F)F)c2)C2=C1C(=O)CCC2 (single isomer, unassigned) [Example 18A]
Quantitative readout: 8.32
--
Compound: CN(C)C(=O)CN1C(=O)N(c2cccc(C(F)(F)F)c2)C2=C(C(=O)CCC2)[C@@H]1c1ccc(C#N)cc1 [Example 34B]
Quantitative readout: 6.24
--
Compound: N#Cc1ccc([C@H]2NC(=O)N(c3cccc(C(F)(F)F)c3)C3=C2C(=O)CCC3)cc1
Quantitative readout: 8.02
--
Compound: CN(Cc1cnn(C)c1)C(=O)CN1C(=O)N(c2cccc(C(F)(F)F)c2)C2=C(C(=O)CCC2)C1c1ccc(C#N)cc1S(C)(=O)=O (centres unmarked)
Quantitative readout: 8.85
--
Compound: CS(=O)(=O)c1cc(C#N)ccc1[C@@H]1NC(=O)N(c2cccc(C(F)(F)F)c2)C2=C1C(=O)CCC2 [Example 18B]
Quantitative readout: 5.60

// next item, pIC50 requested
So for COC1CCN(C(=O)CN2C(=O)N(c3cccc(C(F)(F)F)c3)C3=C(C(=O)CCC3)C2c2ccc(C#N)cc2S(C)(=O)=O)CC1 (centres unmarked) , the logged pIC50 turned out to be 7.94
